Target: Wild-type RET kinase (Homo sapiens)
Sequence (P07949 29-1114): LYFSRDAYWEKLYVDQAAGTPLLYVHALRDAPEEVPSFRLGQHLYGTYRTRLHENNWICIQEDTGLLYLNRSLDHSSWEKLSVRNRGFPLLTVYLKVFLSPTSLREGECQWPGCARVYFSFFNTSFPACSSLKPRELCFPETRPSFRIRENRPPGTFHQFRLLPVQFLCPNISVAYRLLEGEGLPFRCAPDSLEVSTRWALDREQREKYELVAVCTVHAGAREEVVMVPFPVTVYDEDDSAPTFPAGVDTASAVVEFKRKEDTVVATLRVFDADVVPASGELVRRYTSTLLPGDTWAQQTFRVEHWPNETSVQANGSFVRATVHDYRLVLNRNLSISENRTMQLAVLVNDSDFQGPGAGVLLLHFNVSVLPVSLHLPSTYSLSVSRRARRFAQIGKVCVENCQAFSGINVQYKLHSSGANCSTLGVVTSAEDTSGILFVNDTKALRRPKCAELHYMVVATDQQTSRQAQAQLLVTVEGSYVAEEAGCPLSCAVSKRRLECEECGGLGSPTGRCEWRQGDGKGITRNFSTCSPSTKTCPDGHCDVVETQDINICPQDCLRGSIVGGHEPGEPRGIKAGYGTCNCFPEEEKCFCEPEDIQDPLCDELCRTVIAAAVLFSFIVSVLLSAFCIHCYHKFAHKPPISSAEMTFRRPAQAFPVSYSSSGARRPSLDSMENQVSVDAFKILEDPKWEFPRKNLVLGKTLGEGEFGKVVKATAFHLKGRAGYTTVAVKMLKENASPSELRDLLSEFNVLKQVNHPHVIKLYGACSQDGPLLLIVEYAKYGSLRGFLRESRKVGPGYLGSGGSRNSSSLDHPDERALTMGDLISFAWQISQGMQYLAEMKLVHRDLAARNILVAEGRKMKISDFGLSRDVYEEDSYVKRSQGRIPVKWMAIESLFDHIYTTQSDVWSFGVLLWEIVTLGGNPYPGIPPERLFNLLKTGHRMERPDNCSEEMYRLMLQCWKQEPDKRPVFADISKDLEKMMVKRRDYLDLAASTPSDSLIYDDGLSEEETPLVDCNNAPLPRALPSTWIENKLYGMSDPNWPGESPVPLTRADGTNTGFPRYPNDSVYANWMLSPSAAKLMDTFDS
Test: HTRF method for testing the inhibitory activity of compounds against RET
Type: biochemical
Settings: HTRF; read-out: Wild-type RET kinase
Binarize IC50 at 0.8 nM; below is class 1, at or above is class 0.

Answered examples (5):
**Q:** Report whether reported IC50 is lower than 0.8 nM (strictly) for COc1ccc(CN2CCN(c3ccc(-c4cc(OCCN5CC6CC6C5)cn5ncc(C#N)c45)cn3)CC2)cn1 (stereo not shown)
**A:** class 0

**Q:** I'd appreciate it if you could check whether `COc1ccc(CN2C3CC2CN(c2ccc(-c4cc(NCC(C)(C)O)cn5ncc(C#N)c45)cn2)C3)cn1` has IC50 smaller than 0.8 nM.
**A:** class 1

**Q:** Given COc1ccc(CN2C3CC2CN(c2ccc(-c4cc(NCC5CCOC5)cn5ncc(C#N)c45)cn2)C3)cn1 (stereo not shown) , is recorded IC50 strictly lower than 0.8 nM?
**A:** class 0

**Q:** Record `COc1ccc(CN2C3CC2CN(c2ccc(-c4cc(Br)cn5ncc(C#N)c45)cn2)C3)cn1` : is its IC50 strictly below 0.8 nM?
**A:** class 0

**Q:** State whether 0.8 nM exceeds IC50 recorded for `COc1ccc(CN2C3CC2CN(c2ccc(-c4cc(N5CCOCC5)cn5ncc(C#N)c45)cn2)C3)cn1` .
**A:** class 1

Continuing:
**Q:** API: query returns whether the compound falls strictly under 0.8 nM in IC50. Query: `COc1ccc(CN2C3CC2CN(c2cnc(-c4cc(OCC(C)(C)C#N)cn5ncc(C#N)c45)cn2)C3)cn1`
**A:** class 0

**Q:** API: query returns whether the compound falls strictly under 0.8 nM in IC50. Query: `COc1ccc(CN2C3CC2CN(c2cnc(-c4cc(OCCN5CC6(CCCNC6)C5)cn5ncc(C#N)c45)cn2)C3)cn1`
**A:** class 1

**Q:** Say whether its IC50 is strictly beneath 0.8 nM. Entry: `COc1ccc(CN2C3CC2CN(c2ccc(-c4cc(NC(C)C)cn5ncc(C#N)c45)cn2)C3)cn1`
**A:** class 1

**Q:** is_below(IC50, 0.8 nM) for `COc1ccc(CN2C3CC2CN(c2cnc(-c4cc(OCCN5CC6(CCCOC6)C5)cn5ncc(C#N)c45)cn2)C3)cn1` ?
**A:** class 0

**Q:** Could you please tell me whether IC50 recorded for `COc1ccc(CN2C3CC2CN(c2cnc(-c4cc(OCCN5CC6(COC6)C5)cn5ncc(C#N)c45)cn2)C3)cn1` is less than 0.8 nM?
**A:** class 0

**Q:** Does the reported IC50 of `COc1ccc(CN2C3CC2CN(c2ccc(-c4cc(N5CCCC5)cn5ncc(C#N)c45)cn2)C3)cn1` stay below 0.8 nM?
**A:** class 1

**Q:** Does `CCCNc1cc(-c2ccc(N3CC4CC(C3)N4Cc3ccc(OC)nc3)nc2)c2c(C#N)cnn2c1` have IC50 strictly under 0.8 nM?
**A:** class 1

**Q:** is_below(IC50, 0.8 nM) for `CNC(=O)Nc1cnn2cc(-c3cnn(C)c3)cc(-c3ccc(N4CCN(Cc5ccc(OC)nc5)CC4)nc3)c12` ?
**A:** class 0

**Q:** Record `COc1ccc(CN2CCN(c3ccc(-c4cc(-c5cnn(C)c5)cn5ncc(NC(=O)c6cncn6C)c45)cn3)CC2)cn1` : is its IC50 strictly below 0.8 nM?
**A:** class 0

**Q:** API: query returns whether the compound falls strictly under 0.8 nM in IC50. Query: `CCNC(=O)c1cnn2cc(-c3cnn(C)c3)cc(-c3ccc(N4CCN(c5ccc(OC)nc5)CC4)nc3)c12`
**A:** class 0

**Q:** Criterion: IC50 strictly below 0.8 nM. Is it met by `COc1ccc(CN2C3CC2CN(c2ccc(-c4cc(NCC(C)C)cn5ncc(C#N)c45)cn2)C3)cn1` ?
**A:** class 1
